# credit: patent US20210032365A1

Target: T1, human C1s (human, UniProt P09871 16-688)
T1 construct: also called hC1s; serum-derived human C1s (CompTech)
T1 sequence: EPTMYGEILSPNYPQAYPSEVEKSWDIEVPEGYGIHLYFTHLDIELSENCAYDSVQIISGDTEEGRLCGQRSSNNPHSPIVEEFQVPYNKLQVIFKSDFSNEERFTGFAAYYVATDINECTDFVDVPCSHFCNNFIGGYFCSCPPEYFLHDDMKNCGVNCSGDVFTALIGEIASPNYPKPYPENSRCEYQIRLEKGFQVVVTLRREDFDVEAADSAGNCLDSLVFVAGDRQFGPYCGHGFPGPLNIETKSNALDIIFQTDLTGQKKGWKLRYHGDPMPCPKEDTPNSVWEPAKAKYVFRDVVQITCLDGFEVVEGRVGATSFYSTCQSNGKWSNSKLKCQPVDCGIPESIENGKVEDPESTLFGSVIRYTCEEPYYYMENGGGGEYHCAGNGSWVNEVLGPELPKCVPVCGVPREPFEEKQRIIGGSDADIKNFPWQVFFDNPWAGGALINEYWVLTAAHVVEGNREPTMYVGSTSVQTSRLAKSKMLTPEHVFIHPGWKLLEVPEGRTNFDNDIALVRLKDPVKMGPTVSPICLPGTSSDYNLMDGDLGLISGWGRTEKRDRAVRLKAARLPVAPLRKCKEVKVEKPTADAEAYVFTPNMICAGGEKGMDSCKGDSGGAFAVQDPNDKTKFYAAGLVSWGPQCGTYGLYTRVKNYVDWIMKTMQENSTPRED
Experiment: SPR, Ab captured; pH 7.4, 1.2 mM Ca
Param label: returns yes when Kd < 9 nM, returns no otherwise, including exact equality.

Example results:
BINDER: C1_IPN009VH2-SG4GK/IPN93L0030-SK1 (antibody, human IgG4 S228P, kappa, name in Kabat numbering, V domains shown, also called IPN009VH2/IPN93L0030) VH: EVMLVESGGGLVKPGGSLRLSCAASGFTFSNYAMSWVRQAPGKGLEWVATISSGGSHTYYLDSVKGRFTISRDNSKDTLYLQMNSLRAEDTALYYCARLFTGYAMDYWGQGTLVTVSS VL: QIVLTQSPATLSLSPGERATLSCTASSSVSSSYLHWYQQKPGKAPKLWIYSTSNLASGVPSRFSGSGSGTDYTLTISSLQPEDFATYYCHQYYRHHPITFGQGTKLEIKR
ASSIGNED_CATEGORY: no

BINDER: C1_IPN009VH2-SG4GK/IPN93L0028-SK1 (antibody, human IgG4 S228P, kappa, name in Kabat numbering, V domains shown, also called IPN009VH2/IPN93L0028) VH: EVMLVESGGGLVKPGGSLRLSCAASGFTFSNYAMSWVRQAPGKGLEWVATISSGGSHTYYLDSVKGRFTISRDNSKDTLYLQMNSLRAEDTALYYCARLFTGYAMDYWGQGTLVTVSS VL: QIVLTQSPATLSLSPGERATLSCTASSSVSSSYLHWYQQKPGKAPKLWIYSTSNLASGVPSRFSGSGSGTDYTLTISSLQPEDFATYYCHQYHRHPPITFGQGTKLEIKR
ASSIGNED_CATEGORY: no

BINDER: C1_IPN92H0038-SG4GK/IPN93L0030-SK1 (antibody, human IgG4 S228P, kappa, name in Kabat numbering, V domains shown, also called IPN92H0038/IPN93L0030) VH: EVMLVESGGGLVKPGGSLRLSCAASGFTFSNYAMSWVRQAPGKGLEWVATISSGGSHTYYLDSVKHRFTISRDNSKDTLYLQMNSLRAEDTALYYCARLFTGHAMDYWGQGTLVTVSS VL: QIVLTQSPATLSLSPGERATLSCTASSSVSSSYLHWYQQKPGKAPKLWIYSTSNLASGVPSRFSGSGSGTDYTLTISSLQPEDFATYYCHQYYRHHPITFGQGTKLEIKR
ASSIGNED_CATEGORY: no

Task: Is 9 nM strictly greater than the binder's reported Kd? binder: C1_IPN92H0026-SG4GK/IPN93L0024-SK1 (antibody, human IgG4 S228P, kappa, name in Kabat numbering, V domains shown, also called IPN92H0026/IPN93L0024) VH: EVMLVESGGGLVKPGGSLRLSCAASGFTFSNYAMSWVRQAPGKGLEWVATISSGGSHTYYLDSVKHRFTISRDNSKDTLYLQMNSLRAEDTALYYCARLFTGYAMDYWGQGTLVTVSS VL: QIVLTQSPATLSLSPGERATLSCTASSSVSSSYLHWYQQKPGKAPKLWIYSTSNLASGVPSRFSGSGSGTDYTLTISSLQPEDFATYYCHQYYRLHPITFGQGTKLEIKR
Result: yes
